Cited source for all entries: patent US8022091B2

- tested on: human Edg-1 (S1P1) (Homo sapiens)
- Construct: expressed in transfected cells; host or cells: HEK-293
- Sequence (P21453 whole entry): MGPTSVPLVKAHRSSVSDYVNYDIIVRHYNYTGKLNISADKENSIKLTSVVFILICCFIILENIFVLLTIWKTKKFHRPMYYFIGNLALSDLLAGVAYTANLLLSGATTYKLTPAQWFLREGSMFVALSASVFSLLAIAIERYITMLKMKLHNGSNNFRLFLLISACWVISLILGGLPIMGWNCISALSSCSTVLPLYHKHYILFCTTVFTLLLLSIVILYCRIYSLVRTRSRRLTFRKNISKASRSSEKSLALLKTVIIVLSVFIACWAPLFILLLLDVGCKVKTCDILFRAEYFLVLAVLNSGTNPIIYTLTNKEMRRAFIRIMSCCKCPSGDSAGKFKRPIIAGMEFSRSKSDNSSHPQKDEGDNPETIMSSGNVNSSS
- assay protocol: S1P1 binding assay: inhibition of [33P]-S1P binding to membrane fraction of HEK-293 cells transferred with the human Edg-1 (S1P1) gene
- test conditions: test compound 10 μM; inhibition of [33P]-S1P binding, membrane fraction
measured quantity: inhibition at 10 µM (%)

| compound | measurement unit | inhibition at 10 µM |
| --- | --- | --- |
| CCn1c(Oc2cccc(N3CCN(C)CC3)c2)nnc1[C@@H](C)NS(=O)(=O)c1ccccc1C [Compound 531] | % | 100 |
| CCn1c(Oc2cccc(N3CCN(C)CC3)c2)nnc1[C@@H](C)NS(=O)(=O)c1ccc2c(c1)OCCCO2 [Compound 674] | % | 97 |
| CCn1c(Oc2ccc3cc[nH]c3c2)nnc1[C@@H](C)NS(=O)(=O)c1ccc(Br)cc1F [Compound 414] | % | 92.5 |
